Assayed Target: T1, RVFV nucleoprotein N (SEC fraction N2) (Rift Valley fever virus (strain …, UniProt D3K5I7 1-245))
T1 sequence: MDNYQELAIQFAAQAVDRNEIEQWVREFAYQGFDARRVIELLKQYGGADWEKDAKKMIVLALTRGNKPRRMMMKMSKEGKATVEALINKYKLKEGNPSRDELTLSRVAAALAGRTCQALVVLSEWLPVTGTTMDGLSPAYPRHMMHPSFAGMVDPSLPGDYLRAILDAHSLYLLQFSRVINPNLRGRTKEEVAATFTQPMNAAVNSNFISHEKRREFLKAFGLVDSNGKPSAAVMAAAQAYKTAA
Test Protocol: SPR; RNA immobilized via biotin-NeutrAvidin; SPR (ProteOn XPR36, […]; temperature not stated
Recorded Conditions: protein: recombinant; tags: N-terminal thioredoxin-His6 tag removed by TEV; label: 3' biotin; single strand
Readout Label: Kd (µM)
Numbers only here, please. The scale is µM.

Q) Recall and state the measured Kd for GAGUUGUUAAUCUUUUUUUU (ssRNA) [RNA20-3'biotin] .
A) 3.8
